Some molecules, each annotated with its measured IC50.
Target sequence: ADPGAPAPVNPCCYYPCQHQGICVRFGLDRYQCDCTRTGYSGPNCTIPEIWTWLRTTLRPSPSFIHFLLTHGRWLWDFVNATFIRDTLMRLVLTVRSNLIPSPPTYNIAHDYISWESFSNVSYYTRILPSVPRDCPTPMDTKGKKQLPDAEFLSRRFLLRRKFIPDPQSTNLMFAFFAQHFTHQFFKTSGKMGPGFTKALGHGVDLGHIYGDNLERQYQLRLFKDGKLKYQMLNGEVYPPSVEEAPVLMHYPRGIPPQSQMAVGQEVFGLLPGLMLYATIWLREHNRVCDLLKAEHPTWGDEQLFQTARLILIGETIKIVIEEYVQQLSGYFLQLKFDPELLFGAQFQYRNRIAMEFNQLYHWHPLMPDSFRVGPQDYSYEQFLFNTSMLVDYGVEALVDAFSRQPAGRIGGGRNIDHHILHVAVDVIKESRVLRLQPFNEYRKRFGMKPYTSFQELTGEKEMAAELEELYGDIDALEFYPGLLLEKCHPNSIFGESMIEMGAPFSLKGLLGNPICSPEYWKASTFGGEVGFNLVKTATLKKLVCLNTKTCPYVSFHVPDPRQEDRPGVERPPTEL

# annotated cases, reported IC50 shown
Enquiry: Write down IC50 measured for item CCCCCC(=O)Cc1cc(O)cc(O)c1C(=O)Oc1cc(O)c(C(=O)O)c(CCCCC)c1
Return: > 30 µM

Enquiry: Output measured IC50 for this item: CCCCCc1cc(OC(=O)c2c(O)cc(OC)cc2CCCCC)cc(O)c1C(=O)O
Return: > 30 µM

# context switch: different molecule, same IC50
Enquiry: Quick one: give measured IC50 for CCCCCC(=O)Cc1cc(O)cc2c1C(=O)Oc1cc(O)c(C(=O)O)c(CCCCC)c1O2
Return: > 30 µM
